# Test system: Yap1 mRNA
# PROTOCOL_SUMMARY: Dose-dependent inhibition of human Yap1 in A-431 cells (Example 8, 10,000 cells per well, RTS4814)
# Format: cell-based
# CONDITION: A-431 cells, free uptake, approximately 48 hours, RTS4814; linear regression on log/linear plot
Strand notation (5' to 3'): a small letter for the sugar, then the base; units joined by * are phosphorothioate-linked, units joined directly phosphodiester-linked; [ ] holds rarer units or linkages, { } end groups; capitals alone tell only the bases. k = constrained ethyl (cEt); [5mC] = 5-methylcytosine; d = 2'-deoxy (DNA)
READOUT_NAME: IC50 (nM)
One number for each entry, in nM.

1076491 (kA*kG*k[5mC]*d[5mC]*dA*dA*dA*dA*dT*dA*dG*dG*dT*kG*kA*kG; antisense) [compound 1076491] = 100

Next item in the queue.
In: Return IC50 for the following substance: 1074477 (kG*kT*kT*d[5mC]*d[5mC]*dG*dA*d[5mC]*dA*dA*dA*dA*d[5mC]*k[5mC]*kA*kA; antisense) [compound 1074477]
Out: 100

---

# Tested on: Yap1 mRNA
# PROTOCOL_SUMMARY: Yap1 mRNA in SCC25 cells, RNA analysis (Example 25)
# Type: cell-based, human
# CONDITION: 5 μM, free uptake, 48 hours, RTS4814, normalized to actin-beta
# Method: Modified oligonucleotides described in the studies above were tested at various doses in squamous cell carcinoma cell SCC25. […] Cultured SCC25 cells at a density of 5,000 cells per well were treated using free uptake with modified oligonucleotides diluted to concentrations described in the tables below. After approximately 48 hours, Yap1 mRNA levels were measured as previously described using the Human Yap1 primer-probe set RTS4814. […]
Could you please report measured Yap1 mRNA, % UTC for the items listed next?
Could you write the number and then its unit?

958499 (ATTAGAGTATGTGGCA; 3-10-3 cEt gapmer, further chemistry not given here) [compound 958499] = 4 % UTC
1198439 (AGTGTATGTCAGAAGA; sugar, 5-methylcytosine, phosphorothioate modifications, further chemistry not given here) [compound 1198439] = 3 % UTC

In: Under Yap1 mRNA: report Yap1 mRNA, % UTC of CGCCGATAAGGTACAC (cEt gapmer, phosphorothioate backbone, further chemistry not given here) [ION 792169, reference compound] .
Out: 98 % UTC

---

# Tested on: Yap1 mRNA
# PROTOCOL_SUMMARY: Antisense inhibition of human Yap1 in SNU-449 cells by modified oligonucleotides, single dose (Example 5, RTS36584)
# Assay type: cell-based
# CONDITION: Table 41; SNU-449 cells, 10,000 cells per well, free uptake, 2,000 nM modified oligonucleotide, approximately 48 hours; RTS36584; normalized to RIBOGREEN; Yap1 mRNA relative to untreated control cells
# Description: Modified oligonucleotides with additional chemistry modifications were designed to target a Yap1 nucleic acid and were tested for their effect on Yap1 mRNA level in SNU-449 cells. […] After a treatment period of approximately 48 hours, RNA was isolated from the cells and Yap1 mRNA levels were measured by quantitative real-time RTPCR. […] Yap1 mRNA levels were normalized to total RNA content, as measured by RIBOGREEN®. […]
Strand notation (5' to 3'): a small letter for the sugar, then the base; units joined by * are phosphorothioate-linked, units joined directly phosphodiester-linked; [ ] holds rarer units or linkages, { } end groups; capitals alone tell only the bases. e = 2'-O-(2-methoxyethyl) (MOE); k = constrained ethyl (cEt); [5mC] = 5-methylcytosine; d = 2'-deoxy (DNA)
Labels assigned by YAP1 (% UTC) range: lo: < 30 % UTC; med: ≥ 30 % UTC and < 70 % UTC; hi: ≥ 70 % UTC

For orientation, consider the following solved cases.
1198773 (kA*e[5mC]*kT*d[5mC]*dT*dT*dA*dT*dA*dT*dG*dG*eT*eT*kT*kT; antisense) [Compound 1198773] = med
1198673 (antisense kG*kA*dT*dT*dT*dA*dG*dG*dA*dT*dG*d[5mC]*kA*eT*kG*eG) [Compound 1198673] = lo
1198640 (kT*kT*dA*dG*dA*dG*dT*dA*dT*dG*dT*dG*kG*e[5mC]*kA*eA; antisense) [Compound 1198640] = lo
958499 (kA*kT*kT*dA*dG*dA*dG*dT*dA*dT*dG*dT*dG*kG*k[5mC]*kA) [Compound 958499] = lo

In: Kindly state the category for this substance: 1198656 (kG*k[5mC]*dA*d[5mC]*dT*dT*dT*dT*dA*d[5mC]*dA*dT*kT*eA*kG*eG; antisense) [Compound 1198656]
Out: lo

In: Kindly state the category for this substance: 1198791 (antisense kT*eT*kA*dA*dA*dG*dT*dG*dT*dA*dT*dG*eT*e[5mC]*kA*kG) [Compound 1198791]
Out: med

In: Kindly state the category for this substance: 1198645 (kT*k[5mC]*dT*dA*dT*dA*dT*dT*dA*dG*dA*dG*kT*eA*kT*eG; antisense) [Compound 1198645]
Out: hi
